Source: patent US10604489B2

system-name: μ-receptor (Homo sapiens (Human), UniProt P35372)
assay-method-text: Receptor binding, competitive displacement of [3H]DAMGO
run-conditions: 0.25 nM [3H]DAMGO, CHO cell membrane protein, 60 min at 25° C.
pKi: −log10 of the molar value. Counter-ions that a name gives are not always drawn.
endpoint-name: pKi

Use these answered entries as a reference point.
1) COC1(c2ccnc(C(N)=O)c2)C2CCCC1CN(C13CC(c4ccccc4)(C1)C3)C2 (centres unmarked) [Compound 106, hydrochloride] ... > 9.00
2) COC1(c2cccc(C(N)=O)c2)C2CCCC1CN(Cc1nc3ccccc3[nH]1)C2 (centres unmarked) [Compound 64, hydrochloride] ... > 9.00
3) CN1CC2CCCC(C1)C2(OCC(F)(F)F)c1cccc(C(N)=O)c1 (centres unmarked) [Compound 37, hydrochloride] ... 8.30 to 9.00
4) COC1(c2cccc(C(N)=O)c2)C2CCCC1CN(CCN1CCNC1=O)C2.Cl (centres unmarked) [Compound 63, hydrochloride] ... > 9.00
5) COC1(c2cccc(C(N)=O)c2)C2CCCC1CN(C1CCOCC1)C2 (centres unmarked) [Compound 45, hydrochloride] ... 8.30 to 9.00

**Query** pKi lookup needed for COC1(c2ccnc(C(N)=O)c2)C2CCCC1CN([C@H]1C[C@@H]3[C@H](C1)C3(F)F)C2 (some centres unmarked) [Compound 18, hydrochloride] , thanks.
**Result** > 9.00

**Query** Cool, now COC1(c2cccc(C(N)=O)c2)C2CCCC1CN(C[C@H]1CCOC1)C2 (single isomer, unassigned) [Compound 148, hydrochloride]
**Result** > 9.00

**Query** Cool, now COC1(c2ccnc(C(N)=O)c2)C2CCCC1CN(C[C@@H]1CCCO1)C2 (single isomer, unassigned) [Compound 135, hydrochloride]
**Result** 8.30 to 9.00

**Query** Cool, now COC1(c2ccnc(C(N)=O)c2)C2CCCC1CN(Cc1ncc[nH]1)C2 (centres unmarked) [Compound 99, hydrochloride]
**Result** 8.30 to 9.00

**Query** Cool, now COC1(c2cccc(C(N)=O)c2)C2CCCC1CN(C(C)C)C2 (centres unmarked) [Compound 25, hydrochloride]
**Result** > 9.00

**Query** Cool, now COC1(c2cccc(C(N)=O)c2)C2CCCC1CN(Cc1n[nH]c3ccccc13)C2 (centres unmarked) [Compound 154, hydrochloride]
**Result** > 9.00

**Query** Cool, now COCCN1CC2CCCC(C1)C2(OC)c1ccnc(C(N)=O)c1 (centres unmarked) [Compound 83, hydrochloride]
**Result** 8.30 to 9.00

**Query** Cool, now COC1(c2ccnc(C(N)=O)c2)C2CCCC1CN(C1CC(c3ccccc3)C1)C2 (centres unmarked) [Compound 89, hydrochloride]
**Result** > 9.00

**Query** Cool, now COC1(c2ccnc(C(N)=O)c2)C2CCCC1CN([C@@H]1C[C@H]3C[C@H]3C1)C2 (some centres unmarked) [Compound 93, hydrochloride]
**Result** 8.30 to 9.00

----------
system-name: human μ opioid receptor (Homo sapiens (Human), UniProt P35372)
assay-method-text: Functional activity ([35S]GTPγS binding)
Format: biochemical
run-conditions: [35S]GTPγS 0.080 nM, CHO cell membranes, 60 min at 30° C., filtration
Experimental: The [^35S]GTPγS assay measures the functional properties of a compound by quantifying the level of G-protein activation following agonist binding in studies using stably transfected cells, and is considered to be a measure of the efficacy of a compound. […] Nonspecific binding was measured by inclusion of 10 μM GTPγS. […] The filters were washed three times with cold 50 mM Tris-HCl, pH 7.5, and were counted in 2 mL of Ecoscint scintillation fluid.
pEC50: −log10 of the molar value. Structures can show the parent of a compound that is named as a salt.
The compounds listed here are annotated with their pEC50.

**Query** pEC50 lookup needed for COC1(c2cccc(C(N)=O)c2)C2CCCC1CN(CCC1CC1)C2.Cl (stereo not shown) [Compound 138, hydrochloride] , thanks.
**Result** > 8.00

**Query** Cool, now COC1(c2cccc(C(N)=O)c2)C2CCCC1CN(CC1CC1)C2.Cl (stereo not shown) [Compound 22, hydrochloride]
**Result** > 8.00

**Query** Cool, now COC1(c2ccnc(C(N)=O)c2)C2CCCC1CN(C(C)(C)C)C2 (stereo not shown) [Compound 107, hydrochloride]
**Result** < 7.12

**Query** Cool, now COC1(c2ccnc(C(N)=O)c2)C2CCCC1CN(C1CCCOC1)C2 (stereo not shown) [Compound 111, hydrochloride]
**Result** < 7.12

----------
system-name: human μ opioid receptor (Homo sapiens (Human))
assay-method-text: Alternate functional activity ([35S]GTPγS binding) assay, SPA beads
Format: biochemical
run-conditions: alternate assay: [35S]GTPγS 0.020 nM, CHO cell membranes with WGA PVT SPA beads
Counter-ions that a name gives are not always drawn.
endpoint-name: EC50

Use these answered entries as a reference point.
1) COC1(c2cccc(C(N)=O)c2)C2CCCC1CN(C1CC3CCC(C1)O3)C2 (centres unmarked) [Compound 203] ... > 75 nM
2) CCOC1(c2cc(C(N)=O)ccc2F)C2CCCC1CNC2 (centres unmarked) ... 10 to 75 nM
3) COC1(c2cccc(C(N)=O)c2)C2CCCC1CN([C@H](C)c1n[nH]c3cnccc13)C2 (some centres unmarked) ... 10 to 75 nM
4) COC1(c2cccc(C(N)=O)c2)C2CCCC1CN([C@H]1C[C@@H]3[C@H](C1)C3(F)F)C2 (some centres unmarked) ... < 10 nM
5) COC1(c2ccnc(C(N)=O)c2)C2CCCC1CN(C1CC3CCC(C1)O3)C2 (centres unmarked) [Compound 204] ... 10 to 75 nM

**Query** EC50 lookup needed for COC1(c2ccnc(C(N)=O)c2)C2CCCC1CN(C1CC3CCC(C1)O3)C2 (centres unmarked) [Compound 202] , thanks.
**Result** > 75 nM

**Query** Cool, now COC1(c2cccc(C(N)=O)c2)C2CCCC1CN(CCCF)C2 (centres unmarked) [Compound 157, hydrochloride]
**Result** 10 to 75 nM

**Query** Cool, now COC1(c2ccnc(C(N)=O)c2)C2CCCC1CN(C1CC3CCC(C1)O3)C2 (centres unmarked) [Compound 12, hydrochloride]
**Result** 10 to 75 nM

**Query** Cool, now COC1(c2ccnc(C(N)=O)c2)C2CCCC1CN(C[C@@H]1C[C@H]3CC[C@@H](C1)O3)C2 (some centres unmarked)
**Result** 10 to 75 nM

**Query** Cool, now COC1(c2cccc(C(N)=O)c2)C2CCCC1CN([C@@H](C)c1cnc[nH]1)C2 (some centres unmarked) [Compound 19, hydrochloride]
**Result** < 10 nM

**Query** Cool, now CCOC1(c2cc(C)cc(C(N)=O)c2)C2CCCC1CNC2 (centres unmarked)
**Result** > 75 nM

----------
system-name: human μ opioid receptor (Homo sapiens (Human))
assay-method-text: Functional activity ([35S]GTPγS binding)
Assay type: biochemical
run-conditions: [35S]GTPγS 0.080 nM, CHO cell membranes, 60 min at 30° C., filtration
pEC50: −log10 of the molar value. Counter-ions that a name gives are not always drawn.
The molecules listed here are annotated with their pEC50.

Use these answered entries as a reference point.
1) CCC[C@H](C)N1CC2CCCC(C1)C2(OC)c1ccnc(C(N)=O)c1 (single isomer, unassigned) [Compound 134, hydrochloride] ... 7.12 to 8.00
2) COC1(c2cccc(C(N)=O)c2)C2CCCC1CN(CCN1CCNC1=O)C2.Cl (stereo not shown) [Compound 63, hydrochloride] ... 7.12 to 8.00
3) COC1(c2cccc(C(N)=O)c2)C2CCCC1CN(C1CC3(CCC3)C1)C2 (stereo not shown) [Compound 129, hydrochloride] ... > 8.00

Turning now to a further record.
**Query** pEC50 lookup needed for COC1(c2ccnc(C(N)=O)c2)C2CCCC1CN(C1CC3(COC3)C1)C2 (stereo not shown) , thanks.
**Result** 7.12 to 8.00

----------
system-name: human μ opioid receptor (Homo sapiens (Human))
assay-method-text: Functional activity ([35S]GTPγS binding)
Format: biochemical
run-conditions: [35S]GTPγS 0.080 nM, CHO cell membranes, 60 min at 30° C., filtration
Experimental: The [^35S]GTPγS assay measures the functional properties of a compound by quantifying the level of G-protein activation following agonist binding in studies using stably transfected cells, and is considered to be a measure of the efficacy of a compound. […] Nonspecific binding was measured by inclusion of 10 μM GTPγS. […] The filters were washed three times with cold 50 mM Tris-HCl, pH 7.5, and were counted in 2 mL of Ecoscint scintillation fluid.
pEC50: −log10 of the molar value. Structures can show the parent of a compound that is named as a salt.
The molecules listed here are annotated with their pEC50.

Use these answered entries as a reference point.
1) COC1(c2cccc(C(N)=O)c2)C2CCCC1CN([C@H]1C[C@@H]3[C@H](C1)C3(F)F)C2 (stereo partly shown) [Compound 17, hydrochloride] ... > 8.00
2) COC1(c2ccnc(C(N)=O)c2)C2CCCC1CN([C@H]1C[C@@H](OC)C1)C2 (stereo partly shown) [Compound 139, hydrochloride] ... 7.12 to 8.00
3) COC1(c2ccnc(C(N)=O)c2)C2CCCC1CN([C@@H]1C[C@H]3C[C@H]3C1)C2 (stereo partly shown) [Compound 93, hydrochloride] ... 7.12 to 8.00
4) COCCN1CC2CCCC(C1)C2(OC)c1ccnc(C(N)=O)c1 (stereo not shown) [Compound 83, hydrochloride] ... 7.12 to 8.00
5) COC1(c2cccc(C(N)=O)c2)C2CCCC1CN(CC1(O)Cc3ccccc3C1)C2 (stereo not shown) [Compound 58, hydrochloride] ... > 8.00

**Query** pEC50 lookup needed for COC1(c2ccnc(C(N)=O)c2)C2CCCC1CN(CC1(O)CC1)C2 (stereo not shown) [Compound 72, hydrochloride] , thanks.
**Result** < 7.12

**Query** Cool, now COC1(c2ccc(C(N)=O)s2)C2CCCC1CN(CCN1CCCS1(=O)=O)C2 (stereo not shown)
**Result** 7.12 to 8.00
